Ref: patent US20240002495A1

Molecular target: T1, 6His-AviTag-linked cynomolgus monkey IL-33 (residues 112 to 269) (cynomolgus monkey, UniProt O95760 112-269 (human entry), biotin on the AviTag portion (BirA) in the SPR of Example 7; used without biotinylation in Example 10)
T1 construct: GenBank EHH57404 printed; also called cynomolgus monkey IL-33 protein; mature cynomolgus monkey IL-33
T1 chain: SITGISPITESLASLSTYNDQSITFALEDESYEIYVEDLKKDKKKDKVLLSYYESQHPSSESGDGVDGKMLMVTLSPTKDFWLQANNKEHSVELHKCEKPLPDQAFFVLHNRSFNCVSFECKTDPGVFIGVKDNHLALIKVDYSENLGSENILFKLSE
Test: SPR, IL-33 on chip, Fab supernatant as analyte
endpoint-name: koff (s⁻¹)
Answers are plain numbers, in s⁻¹.

Here are 3 binders together with their reported answers.
A25-3G05 (Fab) (Fab, V domains shown, Fab secreted by E. coli, tested as culture supernatant; also called V16) VH: EVQLLESGGGLVQPGGSLRLSCAASGFTFSHYYMHWVRQAPGKGLEWVSSISALSSYIYYADSVRGRFTISRDNSKNTLYLQMNSLRAEDTAVYYCARLATRRDAFDIWGQGTLVTVSS VL: QSVLTQPPSASGTPGQRVTISCSGSSSNIGNNAVNWYQQLPGTAPKLLIYASNMRGLGVPDRFSGSKSGTSASLAISGLRSEDEADYYCGAWDDSQKVFVFGGGTKLTVL ... 2.02e-05
A12-1H04 (Fab) (Fab, V domains shown, Fab secreted by E. coli, tested as culture supernatant; also called V3) VH: EVQLLESGGGLVQPGGSLRLSCAASGFTFSDYYMDWVRQAPGKGLEWVSSISRYSGYVYYADSVKGRFTISRDNSKNTLYLQMNSLRAEDTAVYYCARDIGGMDVWGQGTLVTVSS VL: QSVLTQPPSASGTPGQRVTISCTGSSSNIGAVYNVHWYQQLPGTAPKLLIYRNNQRPSGVPDRFSGSKSGTSASLAISGLRSEDEADYYCQSYDSSRWVFGGGTKLTVL ... 4.83e-05
A26-2A05 (Fab) (Fab, V domains shown, Fab secreted by E. coli, tested as culture supernatant; also called V19) VH: EVQLLESGGGLVQPGGSLRLSCAASGFTFSNYYMHWVRQAPGKGLEWVSSISARSSYIYYADSVKGRFTISRDNSKNTLYLQMNSLRAEDTAVYYCARLATRHGAFDIWGQGTLVTVSS VL: QSVLTQPPSASGTPGQRVTISCSGSSSNIGNNAVNWYQQLPGTAPKLLIYASNMRRMGVPDRFSGSKSGTSASLAISGLRSEDEADYYCAAWDDSQKAFVFGGGTKLTVL ... 1e-05

For every record below, what is its koff?
1. A28-2H06 (Fab) (Fab, V domains shown, Fab secreted by E. coli, tested as culture supernatant; also called V28) VH: EVQLLESGGGLVQPGGSLRLSCAASGFTFSNYYMHWVRQAPGKGLEWVSSISALSSYRYYADSVKGRFTISRDNSKNTLYLQMNSLRAEDTAVYYCARLATRRVAFDIWGQGTLVTVSS VL: QSVLTQPPSASGTPGQRVTISCSGSSSNIGNNAVNWYQQLPGTAPKLLIYASNMRRLGVPDRFSGSKSGTSASLAISGLRSEDEADYYCAAWDDSQKALVFGGGTKLTVL
2. A25-2B02 (Fab) (Fab, V domains shown, Fab secreted by E. coli, tested as culture supernatant; also called V10) VH: EVQLLESGGGLVQPGGSLRLSCAASGFTFSNYYMHWVRQAPGKGLEWVSSISARSSYIYYADSVKGRFTISRDNSKNTLYLQMNSLRAEDTAVYYCARLATRNNAFDIWGQGTLVTVSS VL: QSVLTQPPSASGTPGQRVTISCSGSSSNIGRNAVNWYQQLPGTAPKLLIYASNMRVLGVPDRFSGSKSGTSASLAISGLRSEDEADYYCWAWDDSQKAVVFGGGTKLTVL

Data returned:
1: 1e-05; 2: 1e-05
